ASSAYED_TARGET: HIV-1-protease (Human immunodeficiency virus type 1 group M subtype B)
PROPERTY: IC50

Some solved entries appear below for comparison.
RECORD_SMILES: COC(=O)N[C@H](C(=O)N[C@@H](Cc1ccccc1)[C@@H](O)CN(Cc1ccc(-c2ccccc2)cc1)NC(=O)[C@@H](NC(=O)OC)C(C)(C)C)C(C)(C)C
ASSAYED_TARGET: HIV-1-protease (Human immunodeficiency virus type 1 group M subtype B)
RESULT: 58 nM

RECORD_SMILES: COC(=O)N[C@H](C(=O)NN(Cc1ccc(-c2ccccc2C#N)cc1)C[C@H](O)[C@H](Cc1ccccc1)NC(=O)[C@@H](NC(=O)OC)C(C)(C)C)C(C)C
ASSAYED_TARGET: HIV-1-protease (Human immunodeficiency virus type 1 group M subtype B)
RESULT: 38 nM

RECORD_SMILES: COC(=O)N[C@H](C(=O)N[C@@H](Cc1ccccc1)[C@@H](O)CN(Cc1ccc(-c2ccccc2C#N)cc1)NC(=O)[C@@H](NC(=O)OC)C(C)(C)C)C(C)C
ASSAYED_TARGET: HIV-1-protease (Human immunodeficiency virus type 1 group M subtype B)
RESULT: 43 nM

RECORD_SMILES: COC(=O)N[C@H](C(=O)NN(Cc1ccc(-c2ccccc2)cc1)C[C@H](O)[C@H](Cc1ccccc1)NC(=O)[C@@H](NC(=O)OC)C(C)(C)C)C(C)C
ASSAYED_TARGET: HIV-1-protease (Human immunodeficiency virus type 1 group M subtype B)
RESULT: 85 nM

Read the next record carefully.
For HIV-1-protease (Human immunodeficiency virus type 1 group M subtype B), provide IC50 of COC(=O)N[C@H](C(=O)N[C@@H](Cc1ccccc1)[C@@H](O)CN(Cc1ccc(-c2ccccc2)cc1)NC(=O)[C@@H](NC(=O)OC)C(C)(C)C)C(C)C please.
51 nM

====

MEASUREMENT_PROTOCOL: in vivo
EXPERIMENTAL_SETUP: mouse, po, 120 mg/kg
Respond with fulfilled for concentration at 0.5 h values of 1000 nM and above, not fulfilled for values below.

concentration at 0.5 h >= 1000 nM for COC(=O)N[C@H](C(=O)N[C@@H](Cc1ccccc1)[C@@H](O)CN(Cc1ccc(-c2ccccc2)cc1)NC(=O)[C@@H](NC(=O)OC)C(C)(C)C)C(C)(C)C ?
fulfilled

====

MEASUREMENT_PROTOCOL: in vivo
EXPERIMENTAL_SETUP: mouse, po, 120 mg/kg
Kindly return 1 (yes) if reported concentration at 1.5 h is no lower than 2000 nM; return 0 (no) if it is lower.

RECORD_SMILES: COC(=O)N[C@H](C(=O)N[C@@H](Cc1ccccc1)[C@@H](O)CN(Cc1ccc(-c2ccccc2)cc1)NC(=O)[C@@H](NC(=O)OC)C(C)(C)C)C(C)(C)C
CATEGORY: 1 (yes)
--
RECORD_SMILES: COC(=O)N[C@H](C(=O)N[C@@H](Cc1ccccc1)[C@@H](O)CN(Cc1ccc(-c2ccccc2)cc1)NC(=O)[C@@H](NC(=O)OC)C(C)(C)C)C(C)C
CATEGORY: 1 (yes)
--
RECORD_SMILES: COC(=O)N[C@H](C(=O)N[C@@H](Cc1ccccc1)[C@@H](O)CN(Cc1ccc(-c2ccccc2C#N)cc1)NC(=O)[C@@H](NC(=O)OC)C(C)(C)C)C(C)C
CATEGORY: 0 (no)

Could you now consider this next compound?
Please check the record COC(=O)N[C@H](C(=O)NN(Cc1ccc(-c2ccccc2)cc1)C[C@H](O)[C@H](Cc1ccccc1)NC(=O)[C@@H](NC(=O)OC)C(C)(C)C)C(C)C and state if its concentration at 1.5 h is at or above 2000 nM.
0 (no)

====

MEASUREMENT_PROTOCOL: in vivo
EXPERIMENTAL_SETUP: mouse, po, 120 mg/kg
Listed here: items and their measured concentration at 0.5 h.
Quote the value and follow it with the unit of measurement.

RECORD_SMILES: COC(=O)N[C@H](C(=O)NN(Cc1ccc(-c2ccccc2)cc1)C[C@H](O)[C@H](Cc1ccccc1)NC(=O)[C@@H](NC(=O)OC)C(C)(C)C)C(C)C
PROPERTY: concentration at 0.5 h
RESULT: 640 nM
--
RECORD_SMILES: COC(=O)N[C@H](C(=O)NN(Cc1ccc(-c2ccccc2C#N)cc1)C[C@H](O)[C@H](Cc1ccccc1)NC(=O)[C@@H](NC(=O)OC)C(C)(C)C)C(C)C
PROPERTY: concentration at 0.5 h
RESULT: 1420 nM
--
RECORD_SMILES: COC(=O)N[C@H](C(=O)N[C@@H](Cc1ccccc1)[C@@H](O)CN(Cc1ccc(-c2ccccc2C#N)cc1)NC(=O)[C@@H](NC(=O)OC)C(C)(C)C)C(C)C
PROPERTY: concentration at 0.5 h
RESULT: 1680 nM

Attention now turns to another entry.
Fill blank: measured concentration at 0.5 h of the compound COC(=O)N[C@H](C(=O)N[C@@H](Cc1ccccc1)[C@@H](O)CN(Cc1ccc(-c2ccccc2)cc1)NC(=O)[C@@H](NC(=O)OC)C(C)(C)C)C(C)C is ____.
6330 nM
